# measuredTarget: SIRT1 (Homo sapiens, UniProt Q96EB6)
# Sequence (Q96EB6 whole entry): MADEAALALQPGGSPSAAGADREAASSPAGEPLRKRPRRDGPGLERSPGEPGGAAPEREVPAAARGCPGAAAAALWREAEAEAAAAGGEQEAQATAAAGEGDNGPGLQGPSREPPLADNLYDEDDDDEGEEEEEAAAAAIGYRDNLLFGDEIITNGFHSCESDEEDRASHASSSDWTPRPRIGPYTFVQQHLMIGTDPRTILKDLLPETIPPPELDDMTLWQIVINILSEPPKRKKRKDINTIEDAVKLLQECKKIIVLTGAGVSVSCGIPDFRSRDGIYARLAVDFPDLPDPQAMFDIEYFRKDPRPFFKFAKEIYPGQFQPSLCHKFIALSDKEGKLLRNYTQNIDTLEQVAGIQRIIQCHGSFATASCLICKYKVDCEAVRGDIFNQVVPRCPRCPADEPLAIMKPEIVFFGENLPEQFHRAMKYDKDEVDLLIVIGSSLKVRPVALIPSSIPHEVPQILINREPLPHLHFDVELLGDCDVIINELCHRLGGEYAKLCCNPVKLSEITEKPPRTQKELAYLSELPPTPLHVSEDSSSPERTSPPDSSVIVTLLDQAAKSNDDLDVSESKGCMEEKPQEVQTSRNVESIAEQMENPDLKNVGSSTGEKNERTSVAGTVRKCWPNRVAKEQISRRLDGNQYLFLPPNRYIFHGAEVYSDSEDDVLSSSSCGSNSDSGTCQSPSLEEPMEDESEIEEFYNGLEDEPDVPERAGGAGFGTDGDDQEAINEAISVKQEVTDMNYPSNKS
# assayComment: Mass spectrometry based SIRT1 deacetylase activation assay
# Type: biochemical
# particulars: 25 min, mass spectrometry assay, read-out: % Fold Act. (percent maximum fold activation)
Entries and their measured Emax follow.

// known answers, use as guide
compound	experimentalValue
O=C(Nc1cccc2c(=O)cc(-c3cnccc3C(F)(F)F)oc12)c1cnccn1 [Compound 308]	> 200%
O=C(Nc1ccccn1)c1cccc2c(=O)cc(-c3cccc(C(F)(F)F)c3)oc12 [Compound 207]	< 200%
COc1ccccc1-c1cc(=O)c2cccc(NC(=O)c3cscn3)c2o1 [Compound 255]	< 200%
Cc1ncoc1C(=O)Nc1cccc2c(=O)cc(-c3ccccc3C(F)(F)F)oc12 [Compound 268]	> 200%
O=C(Nc1cccc2c(=O)cc(-c3ccccc3C(F)(F)F)oc12)c1cncc(N2CCOCC2)n1 [Compound 316]	> 200%

q: Dear colleague, please send me the reported Emax for CS(=O)(=O)c1ccccc1-c1cc(=O)c2cccc(NC(=O)c3cscn3)c2o1 [Compound 266] when you can.
a: < 200%

q: Indicate the recorded Emax value for this compound: O=C(Nc1cccc2c(=O)cc(-c3ccccc3Cl)oc12)c1cccc(CN2CCOCC2)c1 [Compound 330]
a: > 200%

q: Name the recorded Emax of the item O=C(Nc1cccc2c(=O)cc(-c3ccccc3Cl)oc12)c1cccc(N2CCOCC2)n1 [Compound 324] in your answer.
a: > 200%

q: Look up and report measured Emax for this entry: O=C(Nc1cccc2c(=O)cc(-c3cccc(C(F)(F)F)c3)oc12)c1cccc(OC[C@@H](O)CO)n1 [Compound 244]
a: > 200%
